test details: in vivo
Parameters: species or system mice
setup conditions: male, NODSCID 1L2RγKO, mouse, iv, total radioactivity, Stomach uptake
property label: tissue uptake at 1 h (%ID/g)
Unit %ID/g implied. Number only.

Example compounds with recorded tissue uptake at 1 h:
>>> numeric_readout("COc1ccc(CCCC(=O)NCC(=O)N[C@@H](CCCCNC(=O)CN2CCN(CC(=O)O)CCN(CC(=O)O)CCN(CC(=O)O)CC2)C(=O)NC[C@H]2CC[C@H](C(=O)N[C@@H](Cc3c4ccccc4cc4ccccc34)C(=O)NCCCC[C@H](NC(=O)N[C@@H](CCCC(=O)O)C(=O)O)C(=O)O)CC2)cc1 [177Lu-HTK03170, metal not drawn]")
0.59
>>> numeric_readout("COc1ccc(CCCC(=O)NCC(=O)N[C@@H](CCCCNC(=O)CN2CCN(CC(=O)O)CCN(CC(=O)O)CCN(CC(=O)O)CC2)C(=O)NC[C@H]2CC[C@H](C(=O)N[C@@H](Cc3c4ccccc4cc4ccccc34)C(=O)NCCCC[C@H](NC(=O)N[C@@H](COCC(=O)O)C(=O)O)C(=O)O)CC2)cc1 [177Lu-HTK04028, metal not drawn]")
0.51

Could you now consider this next compound?
Challenge: What does the data say about its tissue uptake at 1 h? Entry: COc1ccc(CCCC(=O)NCC(=O)N[C@@H](CCCCNC(=O)CN2CCN(CC(=O)O)CCN(CC(=O)O)CCN(CC(=O)O)CC2)C(=O)NC[C@H]2CC[C@H](C(=O)N[C@@H](Cc3c4ccccc4cc4ccccc34)C(=O)NCCCC[C@H](NC(=O)N[C@@H](CSCC(=O)O)C(=O)O)C(=O)O)CC2)cc1 [177Lu-HTK04048, metal not drawn]
Response given: 0.74

* * *

test details: in vivo
Parameters: species or system mice
setup conditions: male, NODSCID 1L2RγKO, mouse, iv, total radioactivity, Bone uptake
// assign yes if tissue uptake at 1 h falls strictly below 1 %ID/g, else no (ties count as no)

>>> cat("O=C(O)CCC[C@H](NC(=O)N[C@@H](CCCCNC(=O)[C@H](Cc1c2ccccc2cc2ccccc12)NC(=O)[C@H]1CC[C@H](CNC(=O)[C@H](CCCCNC(=O)CN2CCN(CC(=O)O)CCN(CC(=O)O)CCN(CC(=O)O)CC2)NC(=O)CNC(=O)CCCc2ccc(Cl)cc2)CC1)C(=O)O)C(=O)O [177Lu-HTK03153, metal not drawn]")
"no"

Challenge: Is 1 %ID/g strictly greater than the molecule's reported tissue uptake at 1 h? molecule: O=C(O)CCC[C@H](NC(=O)N[C@@H](CCCCNC(=O)[C@H](Cc1c2ccccc2cc2ccccc12)NC(=O)[C@H]1CC[C@H](CNC(=O)CN2CCN(CC(=O)O)CCN(CC(=O)O)CCN(CC(=O)O)CC2)CC1)C(=O)O)C(=O)O [177Lu-HTK03149, metal not drawn]
Response given: yes

Challenge: One more molecule: COc1ccc(CCCC(=O)NCC(=O)N[C@@H](CCCCNC(=O)CN2CCN(CC(=O)O)CCN(CC(=O)O)CCN(CC(=O)O)CC2)C(=O)NC[C@H]2CC[C@H](C(=O)N[C@@H](Cc3c4ccccc4cc4ccccc34)C(=O)NCCCC[C@H](NC(=O)N[C@@H](CSCC(=O)O)C(=O)O)C(=O)O)CC2)cc1 [177Lu-HTK04048, metal not drawn]
Response given: no

Challenge: One more molecule: COc1ccc(CCCC(=O)NCC(=O)N[C@@H](CCCCNC(=O)CN2CCN(CC(=O)O)CCN(CC(=O)O)CCN(CC(=O)O)CC2)C(=O)NC[C@H]2CC[C@H](C(=O)N[C@@H](Cc3c4ccccc4cc4ccccc34)C(=O)NCCCC[C@H](NC(=O)N[C@@H](CCCC(=O)O)C(=O)O)C(=O)O)CC2)cc1 [177Lu-HTK03170, metal not drawn]
Response given: yes

* * *

test details: in vivo
Design: species or system mice
setup conditions: male, NODSCID 1L2RγKO, mouse, iv, total radioactivity, Brain uptake
Below, each of the compounds is paired with its reported tissue uptake at 24 h value.
Unit %ID/g implied. Number only.

Challenge: What does the data say about its tissue uptake at 24 h? Entry: O=C(O)CCC[C@H](NC(=O)N[C@@H](CCCCNC(=O)[C@H](Cc1c2ccccc2cc2ccccc12)NC(=O)[C@H]1CC[C@H](CNC(=O)[C@H](CCCCNC(=O)CN2CCN(CC(=O)O)CCN(CC(=O)O)CCN(CC(=O)O)CC2)NC(=O)CNC(=O)CCCc2ccc(Cl)cc2)CC1)C(=O)O)C(=O)O [177Lu-HTK03153, metal not drawn]
Response given: 0.13

Challenge: One more compound: COc1ccc(CCCC(=O)NCC(=O)N[C@@H](CCCCNC(=O)CN2CCN(CC(=O)O)CCN(CC(=O)O)CCN(CC(=O)O)CC2)C(=O)NC[C@H]2CC[C@H](C(=O)N[C@@H](Cc3c4ccccc4cc4ccccc34)C(=O)NCCCC[C@H](NC(=O)N[C@@H](COCC(=O)O)C(=O)O)C(=O)O)CC2)cc1 [177Lu-HTK04028, metal not drawn]
Response given: 0.02

Challenge: One more compound: COc1ccc(CCCC(=O)NCC(=O)N[C@@H](CCCCNC(=O)CN2CCN(CC(=O)O)CCN(CC(=O)O)CCN(CC(=O)O)CC2)C(=O)NC[C@H]2CC[C@H](C(=O)N[C@@H](Cc3c4ccccc4cc4ccccc34)C(=O)NCCCC[C@H](NC(=O)N[C@@H](CCCC(=O)O)C(=O)O)C(=O)O)CC2)cc1 [177Lu-HTK03170, metal not drawn]
Response given: 0.02

* * *

Below, each of the molecules is paired with its reported tissue uptake at 120 h value.
test details: in vivo
Set-up: species or system mice
setup conditions: male, NODSCID 1L2RγKO, mouse, iv, total radioactivity, Seminal uptake
Put your answer as a value accompanied by its unit after it.

Challenge: What does the data say about its tissue uptake at 120 h? Entry: O=C(O)CCC[C@H](NC(=O)N[C@@H](CCCCNC(=O)[C@H](Cc1c2ccccc2cc2ccccc12)NC(=O)[C@H]1CC[C@H](CNC(=O)[C@H](CCCCNC(=O)CN2CCN(CC(=O)O)CCN(CC(=O)O)CCN(CC(=O)O)CC2)NC(=O)CNC(=O)CCCc2ccc(Cl)cc2)CC1)C(=O)O)C(=O)O [177Lu-HTK03153, metal not drawn]
Response given: 0.15 %ID/g

Challenge: One more molecule: COc1ccc(CCCC(=O)NCC(=O)N[C@@H](CCCCNC(=O)CN2CCN(CC(=O)O)CCN(CC(=O)O)CCN(CC(=O)O)CC2)C(=O)NC[C@H]2CC[C@H](C(=O)N[C@@H](Cc3c4ccccc4cc4ccccc34)C(=O)NCCCC[C@H](NC(=O)N[C@@H](CCCC(=O)O)C(=O)O)C(=O)O)CC2)cc1 [177Lu-HTK03170, metal not drawn]
Response given: 0.02 %ID/g

Challenge: One more molecule: O=C(O)CCC[C@H](NC(=O)N[C@@H](CCCCNC(=O)[C@H](Cc1c2ccccc2cc2ccccc12)NC(=O)[C@H]1CC[C@H](CNC(=O)CN2CCN(CC(=O)O)CCN(CC(=O)O)CCN(CC(=O)O)CC2)CC1)C(=O)O)C(=O)O [177Lu-HTK03149, metal not drawn]
Response given: 0.01 %ID/g

* * *

test details: in vivo
Design: species or system mice
setup conditions: male, NODSCID 1L2RγKO, mouse, iv, total radioactivity, Fat uptake
Below, each of the molecules is paired with its reported tissue uptake at 120 h value.
Unit %ID/g implied. Number only.

Example molecules with recorded tissue uptake at 120 h:
>>> numeric_readout("O=C(O)CCC[C@H](NC(=O)N[C@@H](CCCCNC(=O)[C@H](Cc1c2ccccc2cc2ccccc12)NC(=O)[C@H]1CC[C@H](CNC(=O)[C@H](CCCCNC(=O)CN2CCN(CC(=O)O)CCN(CC(=O)O)CCN(CC(=O)O)CC2)NC(=O)CNC(=O)CCCc2ccc(Cl)cc2)CC1)C(=O)O)C(=O)O [177Lu-HTK03153, metal not drawn]")
0.19
>>> numeric_readout("COc1ccc(CCCC(=O)NCC(=O)N[C@@H](CCCCNC(=O)CN2CCN(CC(=O)O)CCN(CC(=O)O)CCN(CC(=O)O)CC2)C(=O)NC[C@H]2CC[C@H](C(=O)N[C@@H](Cc3c4ccccc4cc4ccccc34)C(=O)NCCCC[C@H](NC(=O)N[C@@H](CCCC(=O)O)C(=O)O)C(=O)O)CC2)cc1 [177Lu-HTK03170, metal not drawn]")
0.03
>>> numeric_readout("O=C(O)CCC[C@H](NC(=O)N[C@@H](CCCCNC(=O)[C@H](Cc1c2ccccc2cc2ccccc12)NC(=O)[C@H]1CC[C@H](CNC(=O)CN2CCN(CC(=O)O)CCN(CC(=O)O)CCN(CC(=O)O)CC2)CC1)C(=O)O)C(=O)O [177Lu-HTK03149, metal not drawn]")
0.01

Could you now consider this next molecule?
Challenge: What does the data say about its tissue uptake at 120 h? Entry: COc1ccc(CCCC(=O)NCC(=O)N[C@@H](CCCCNC(=O)CN2CCN(CC(=O)O)CCN(CC(=O)O)CCN(CC(=O)O)CC2)C(=O)NC[C@H]2CC[C@H](C(=O)N[C@@H](Cc3c4ccccc4cc4ccccc34)C(=O)NCCCC[C@H](NC(=O)N[C@@H](CSCC(=O)O)C(=O)O)C(=O)O)CC2)cc1 [177Lu-HTK04048, metal not drawn]
Response given: 0.06
